Source of measurements: patent US20210388081A1

# measurement-target: T1, FcRL3, overexpressed on 3T3 cells (UniProt Q96P31 18-734, limits assumed)
# T1 construct: whole, on cells
# T1 sequence (looked up): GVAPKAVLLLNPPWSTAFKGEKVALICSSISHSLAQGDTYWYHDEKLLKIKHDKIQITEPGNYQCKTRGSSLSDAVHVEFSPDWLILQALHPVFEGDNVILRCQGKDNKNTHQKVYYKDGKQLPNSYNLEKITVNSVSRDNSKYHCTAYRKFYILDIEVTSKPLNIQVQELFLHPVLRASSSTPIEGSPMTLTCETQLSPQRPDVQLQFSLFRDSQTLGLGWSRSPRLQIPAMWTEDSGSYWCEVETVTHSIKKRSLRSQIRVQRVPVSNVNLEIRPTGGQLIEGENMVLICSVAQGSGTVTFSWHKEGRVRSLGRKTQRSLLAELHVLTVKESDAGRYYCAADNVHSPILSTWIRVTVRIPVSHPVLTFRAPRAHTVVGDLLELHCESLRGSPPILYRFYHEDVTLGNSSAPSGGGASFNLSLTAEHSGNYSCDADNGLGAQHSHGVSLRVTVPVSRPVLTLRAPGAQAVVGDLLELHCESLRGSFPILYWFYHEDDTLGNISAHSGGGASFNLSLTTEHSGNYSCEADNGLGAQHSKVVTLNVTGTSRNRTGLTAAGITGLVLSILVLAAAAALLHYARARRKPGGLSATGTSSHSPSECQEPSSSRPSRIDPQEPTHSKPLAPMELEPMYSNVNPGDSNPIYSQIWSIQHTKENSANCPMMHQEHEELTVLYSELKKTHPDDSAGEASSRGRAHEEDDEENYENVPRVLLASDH
# assay-notes: phage clone on 3T3-FcRL3 cells
recorded-endpoint: binding result

A selection of reference data follows.
INSERT INTO measurements (binder, result) VALUES
  ('ET200-104 (scFv, screened as phage clone; entry is VL-linker-VH-His tag-HA tag) scFv: NFMLTQPHSVSESPGKTVTISCTRSSGSIASNYVQWYQQRPGSAPTTVIYEDNQRPSGVPDRFSGSIDSSSNSASLTISGLKTEDEADYYCQSYDSSNVVFGGGTKVTVLGSRGGGGSGGGGSGGGGSLEMAEVQLVESGGGLVQPGGSLRLSCAASGFTFSSYEMNWVRQAPGKGLEWVSYISSSGSTIYYADSVKGRFTISRDNAKNSLYLQMNSLRAEDTAVYYCARWDYGMDVWGQGTTVTVSSTSGQAGQHHHHHHGAYPYDVPDYAS', 'no binding'),
  ('ET200-035 (scFv, screened as phage clone; entry is VL-linker-VH-His tag-HA tag) scFv: NFMLTQPHSVSESPGKTVTISCTRSSGSIASNYVQWYQQRPGSAPTTVIYEDNQRPSGVPDRFSGSIDSSSNSASLTISGLKTEDEADYYCQSYDSTNWVFGGGTKLTVLGSRGGGGSGGGGSGGGGSLEMAQVQLVQSGAEVKKPGSSVKVSCKASGGTFSSYAISWVRQAPGQGLEWMGGIIPIFGTANYAQKFQGRVTITADESTSTAYMELSSLRSEDTAVYYCARYNYYFNDYWGQGTLVTVSSTSGQAGQHHHHHHGAYPYDVPDYAS', 'no binding'),
  ('ET200-009 (scFv, screened as phage clone; entry is VL-linker-VH-His tag-HA tag) scFv: QSVLTQPPSASGTPGQTVTISCSGSNSNIGSNYVYWYQQLPGTAPKLLIYRNNQRPSGVPDRFSGSKSGTSASLAISGLRSEDEADYYCAAWDDSLSAYVFGTGTKVTVLGSRGGGGSGGGGSGGGGSLEMAQVQLVQSGAEVKKPGASVKVSCKASGYTFTSYGISWVRQAPGQGLEWMGWISAYNGNTNYAQKLQGRVTMTTDTSTSTAYMELRSLRSDDTAVYYCARSSGNMVSWKDMWGQGTLVTVSSTSGQAGQHHHHHHGAYPYDVPDYAS', 'no binding'),
  ('ET200-115 (scFv, screened as phage clone; entry is VL-linker-VH-His tag-HA tag) scFv: QSVLTQPPSVSGAPGQRVTISCTGSSSNIGARYDVHWYQQLPGTAPRLLISANYDRPSGVPDRFSGSKSGTSASLAITGLQAEDEADYYCQSYDSSVSAWVFGGGTKVTVLGSRGGGGSGGGGSGGGGSLEMAEVQLVQSGAEVKEPGASVRISCQASGYNFISYYMHWVRQAPGQGLEWMGTINPGSGETDYSQKLQGRVTMTRDPSTGTFDMGLSSLTSGDTAVYYCATGLIRGASDAFNIWGRGTMVTVSSTSGQAGQHHHHHHGAYPYDVPDYAS', 'no binding');

--- query ---
Consider ET200-010 (scFv, screened as phage clone; entry is VL-linker-VH-His tag-HA tag) scFv: QSALTQPASVSGSPGQSITISCTGTSSDVGGYNSVSWYQQHPGKAPRLMIYDVSNRPSGVSNRFSGSKSGNTASLTISGLQAEDEADYYCSSYTSSSTPLVFGTGTKVTVLGSRGGGGSGGGGSGGGGSLEMAQVQLVQSGAEVKKPGASVKVSCKASGYTFTSYGISWVRQAPGQGLEWMGWISAYNGNTNYAQKLQGRVTMTTDTSTSTAYMELRSLRSDDTAVYYCARGAVAYHDWGQGTLVTVSSTSGQAGQHHHHHHGAYPYDVPDYAS . Its measured binding result is no binding
